Record form. Attribute: IC50. Fill in for each entry.
# Test system: L1210 Leukämiezellen
# TEST NAME: Cytotoxicity against L1210 leukaemia cells (stem cell assay, colony formation in soft agar)
# Type: cell-based, Maus
# TEST SETTINGS: Mus musculus, L1210; 1 h incubation at 37° C, colonies counted after 5-7 days; read-out: IC₅₀ STEM CELL ASSAY 1 h exp. L1210
Numbers only, in µg/mL.

Sample answers from the record:
>>> value_reported("CC[C@@]1(O)C[C@H](O[C@H]2C[C@H](N3C[C@@H](OC)O[C@@H](C)C3)[C@H](O)[C@H](C)O2)c2c(O)c3c(c(O)c2[C@H]1O)C(=O)c1cccc(O)c1C3=O")
0.095
>>> value_reported("CC[C@@]1(O)C[C@H](O[C@H]2C[C@H](N3C[C@@H](CO)O[C@H](OC)C3)[C@@H](O)[C@H](C)O2)c2c(O)c3c(c(O)c2[C@H]1C(=O)OC)C(=O)c1c(O)ccc(O)c1C3=O")
0.32
>>> value_reported("CC[C@@]1(O)C[C@H](O[C@H]2C[C@H](N3C[C@@H](CO)O[C@H](OC)C3)[C@H](O)[C@H](C)O2)c2c(O)c3c(c(O)c2[C@H]1C(=O)OC)C(=O)c1c(O)ccc(O)c1C3=O")
0.95
>>> value_reported("CC[C@@]1(O)C[C@H](O[C@H]2C[C@H](N3C[C@@H](CO)O[C@@H](n4cnc5c(N)ncnc54)C3)[C@H](O)[C@H](C)O2)c2c(O)c3c(c(O)c2[C@H]1C(=O)OC)C(=O)c1c(O)ccc(O)c1C3=O")
0.5
>>> value_reported("CC[C@@]1(O)C[C@H](O[C@H]2C[C@H](N3C[C@@H](CO)O[C@@H](OC)C3)[C@H](O)[C@H](C)O2)c2c(O)c3c(c(O)c2[C@H]1O)C(=O)c1cccc(O)c1C3=O")
1
>>> value_reported("CC[C@@]1(O)C[C@H](O[C@H]2C[C@H](N3C[C@@H](CO)O[C@@H](OC)C3)[C@H](O)[C@H](C)O2)c2c(O)c3c(c(O)c2[C@H]1C(=O)OC)C(=O)c1c(O)ccc(O)c1C3=O")
1

Each compound below has a reported value. Please supply its IC50.
1. CC[C@@]1(O)C[C@H](O[C@H]2C[C@H](N3C[C@@H](CO)O[C@H](OC)C3)[C@H](O)[C@H](C)O2)c2c(O)c3c(c(O)c2[C@H]1O)C(=O)c1cccc(O)c1C3=O
2. CC[C@@]1(O)C[C@H](O[C@H]2C[C@H](N3C[C@H]4CO[C@@H](C3)O4)[C@H](O)[C@H](C)O2)c2c(O)c3c(c(O)c2[C@H]1O)C(=O)c1cccc(O)c1C3=O

Output:
1: 0.15; 2: 0.12
